# Tested on: RNVPPIFNDVYWIAF (SEQ ID NO: 6)
# TEST_PROTOCOL: Confirmation of antibody titer in serum by ELISA using the target antigen (Experimental Example 7)
# Type: in vivo, C57BL/6J, male mice
# STATED_CONDITIONS: serum at 11, 16 and 19 weeks of age; ELISA antigen SEQ ID NO: 6 only; administration at 8, 10, 12 and 14 weeks
Non-standard residues stand in square brackets, D forms with d. No end group written: not given here. Cha = N[C@@H](CC1CCCCC1)C(=O)O; Ahx = NCCCCCC(=O)O
READOUT_KIND: antibody titer to RNVPPIFNDVYWIAF (SEQ ID NO: 6)

These recorded examples may help you get a feel for the data.
RNVPPIFNDVYWIAFK(Cha)VAAWTLKAAHHHHHH (RNVPPIFNDVYWIAFK[Cha]VAAWTLKAAHHHHHH) [P9] :: observed
RNVPPIFNDVYWIAFZaK(Cha)VAAWTLKAAaZ (RNVPPIFNDVYWIAF[Ahx][dA]K[Cha]VAAWTLKAA[dA][Ahx]) [P7] :: observed
RNVPPIFNDVYWIAFZaK(Cha)VAAWTLKAAaZGSHHHHHHGSDDDDK (RNVPPIFNDVYWIAF[Ahx][dA]K[Cha]VAAWTLKAA[dA][Ahx]GSHHHHHHGSDDDDK) [P2] :: observed
GSHHHHHHGSDDDDKZaK(Cha)VAAWTLKAAaZRNVPPIFNDVYWIAF (GSHHHHHHGSDDDDK[Ahx][dA]K[Cha]VAAWTLKAA[dA][Ahx]RNVPPIFNDVYWIAF) [P3] :: observed

Here is the next item to consider.
Prompt: Return antibody titer to RNVPPIFNDVYWIAF (SEQ ID NO: 6) measured with RNVPPIFNDVYWIAF (SEQ ID NO: 6) given this substance: RNVPPIFNDVYWIAFK(Cha)VAAWTLKAA (RNVPPIFNDVYWIAFK[Cha]VAAWTLKAA) [P8]
Completion: shown
